Assign logP to each entry below.
Numbers only.

Known results for molecules:
CC(=O)Nc1c(I)c(C(=O)NC(CO)CO)c(I)c(C(=O)NC(CO)CO)c1I : -2.27
NS(=O)(=O)c1ccc2ccccc2c1 : 1.55
CC1CC(C(=O)O)=C(C(=O)O)C(C)C1 (centres undefined) : 1.53

Please report the recorded logP for CC(C)(C)c1ccc2c(c1)OCCOCCOCCOCCOCCO2 .
1.71

----------
Assign logP to each entry below.
Numbers only.

Known results for compounds:
CCCC(=O)OCCOCn1cnc2c(=O)[nH]c(N)nc21 : -0.08
COC1CC(OC2CCC3(C=O)C4CCC5(C)C(C6=CC(=O)OC6)CCC5(O)C4CCC3(O)C2)OCC1OC1CC(O)C(O)C(C)O1 (stereo not drawn) : -0.96

Please report the recorded logP for O=C(O)c1ccc(CCl)cc1 .
2.12

----------
Assign logP to each entry below.
Answers are plain numbers.

Known results for compounds:
O=[N+]([O-])c1cnc(-c2ccc(F)cc2)[nH]1 : 1.52
CCOC(=O)c1cccc2c1C(=O)C(=O)N(CC)C2=O : 1.31

Please report the recorded logP for CC(C)c1cccc(C(C)C)c1N .
3.18

----------
Readout kind: logP
Numbers only.

Provide the reported logP of each entry below, same order.
1. O=c1[nH]c(Nc2ccccc2)nc2c1ncn2C1CC(O)C(CO)O1 (centres undefined)
2. O=C(Cn1cnnn1)N[C@@H]1C(=O)N2C(C(=O)O)=C(CSc3nncs3)CS[C@H]12
3. CCN(CC)C(=O)OCCCc1cccnc1
4. Cc1ccccc1C(=O)OCC1CCC(n2cnc3c(=O)[nH]cnc32)O1 (centres undefined)
5. CC(C)C(=O)Nc1cc(C(F)(F)F)ccc1S(N)(=O)=O
6. Cc1ccc(NC(=O)c2[nH]nc(C)c2[N+](=O)[O-])cc1
7. CN(C)N=Nc1ccc(C(F)(F)F)cc1
8. CC12C=CC(=O)C=C1CCC1C2C(O)CC2(C)C1CCC2(O)C(=O)COC1OC(CO)C(OC2OC(CO)C(O)C(O)C2O)C(O)C1O (centres undefined)

[0.4, -0.67, 2.36, 1.02, 2.45, 2.34, 4, -0.56]

Please report the recorded logP for CCC(=O)OC1(c2ccccc2)CCN(C)C(C)C1C (centres undefined) .
3.13

----------
Where a SMILES comes first, the peptide text is derived from it. [ ]: non-standard residue; d: D form. Orn = NCCC[CH](N)C(=O)O
Assign logP to each entry below.

Known results for compounds:
CCNc1nc(NC)nc(SC(F)F)n1 : 2.68
O=C1NC(=O)C(=O)C(=O)N1 : -1.84
OCCOc1ccc(Cl)cc1 : 1.99
CC(C)(C)n1ccnc1C=NO : 0.85
FC(F)(F)C1(F)C(F)(F)C(F)(F)C(F)(N2C(F)(F)C(F)(F)C(F)(F)C(F)(F)C2(F)F)C(F)(F)C1(F)F (stereo unspecified) : 7.1
CC(=O)c1ccc2c(c1)OCCOCCOCCOCCOCCO2 : -0.05
C#CCOc1c(Cl)cc(NC=NOCCCl)cc1Cl : 3.7
Cc1c(O)c(=O)ccn1-c1ccc([N+](=O)[O-])cc1 : 0.76

Provide the reported logP of each entry below, same order.
1. Cc1ccc(-n2ccc(=O)c(O)c2C)cc1
2. O=P([O-])(Oc1ccc(Cl)cc1)Oc1ccc(Cl)cc1
3. CC(=O)NC(CCC(=O)O)C(N)=O (stereo unspecified)

1.72
2.64
-2.47

Provide the reported logP of each entry below, same order.
1. CC(=O)NC(CC(C)C)C(=O)NC(CCCN)C(=O)NC(Cc1ccccc1)C(N)=O (stereo unspecified) (Ac-Leu-[Orn]-Phe-NH2; configuration not given here)
2. COc1ccc(OCCO)cc1
3. O=C(NCCCOc1cccc(CN2CCCCC2)c1)c1ccccc1
4. Cc1ccc(Cl)c(Cl)c1Cl

[0.53, 1.13, 3.97, 4.56]
